target: full length human wildtype Btk (Homo sapiens, UniProt Q06187); construct: V5 (C); 6xHis (C); made in house; host or cells: Sf9 insect cells (baculovirus, pFastBac); assay: Biochemical Btk Assay (BTK LC3K); conditions: Table 2
Sequence (Q06187 whole entry): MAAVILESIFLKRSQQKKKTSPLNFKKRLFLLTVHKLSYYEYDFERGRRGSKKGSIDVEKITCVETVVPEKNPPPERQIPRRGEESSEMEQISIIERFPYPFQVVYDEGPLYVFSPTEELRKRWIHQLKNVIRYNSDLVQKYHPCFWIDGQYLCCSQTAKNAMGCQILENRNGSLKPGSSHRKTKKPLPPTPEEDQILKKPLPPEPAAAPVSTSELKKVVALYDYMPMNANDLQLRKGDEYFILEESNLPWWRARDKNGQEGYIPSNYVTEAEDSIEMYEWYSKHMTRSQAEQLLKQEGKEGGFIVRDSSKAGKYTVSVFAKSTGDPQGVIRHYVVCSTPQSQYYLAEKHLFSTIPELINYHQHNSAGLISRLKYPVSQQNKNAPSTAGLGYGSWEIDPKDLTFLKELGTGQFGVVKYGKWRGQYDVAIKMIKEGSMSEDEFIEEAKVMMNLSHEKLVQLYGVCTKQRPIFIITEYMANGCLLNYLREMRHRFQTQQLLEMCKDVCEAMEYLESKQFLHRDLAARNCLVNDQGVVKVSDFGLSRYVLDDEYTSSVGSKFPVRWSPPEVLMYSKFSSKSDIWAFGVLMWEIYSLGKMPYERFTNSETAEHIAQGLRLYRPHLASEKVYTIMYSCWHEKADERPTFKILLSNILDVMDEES
pKi: −log10 of the molar value.
readoutType: pKi

>>> number("Cn1cc(-c2ccnc(N3CCc4cc(OC(F)F)cc(F)c4C3=O)c2CO)cc(NC(=O)[C@@H]2C[C@@H]2F)c1=O")
7.18
>>> number("Cn1cc(-c2ccnc(N3CCc4c(sc5c4CC(C)(C)C5)C3=O)c2CO)cc(NC(=O)C2CC2)c1=O")
8.15
>>> number("CN1CC[C@@]2(C[C@@H]2C(=O)Nc2cc(-c3ccnc(-n4ncc5cc(C(C)(C)C)cc(F)c5c4=O)c3CO)cn(C)c2=O)C1 (single isomer, unassigned)")
8.14
>>> number("Cn1cc(-c2ccnc(N3CCn4c(cc5c4CC(C)(C)C5)C3=O)c2CO)cc(NC(=O)[C@@H]2CC23CCC3)c1=O (single isomer, unassigned)")
7.77
>>> number("C[C@@H]1C[C@H]1C(=O)Nc1cc(-c2ccnc(N3CCn4c(cc5c4CC(C)(C)C5)C3=O)c2CO)cn(C)c1=O")
7.36
>>> number("Cn1cc(-c2cccc(N3CCn4c(cc5c4CC(C)(C)C5)C3=O)c2CO)cc(NC(=O)C2CC2)c1=O")
8.42
>>> number("CN(C)C(=O)C1C[C@@H]1C(=O)Nc1cc(-c2ccnc(-n3ncc4cc(C(C)(C)C)cc(F)c4c3=O)c2CO)cn(C)c1=O (single isomer, unassigned)")
7.04
>>> number("Cn1cc(-c2ccnc(-n3ncc4cc(C(C)(C)C)cc(F)c4c3=O)c2CO)cc(NC(=O)[C@@H]2CC23CC3)c1=O (single isomer, unassigned)")
8.43
>>> number("CN1CC[C@]2(C[C@H]2C(=O)Nc2cc(-c3ccnc(-n4ncc5cc(C(C)(C)C)cc(F)c5c4=O)c3CO)cn(C)c2=O)C1 (single isomer, unassigned)")
7.42
>>> number("CN(C)C(=O)C1C[C@H]1C(=O)Nc1cc(-c2ccnc(-n3ncc4cc(C(C)(C)C)cc(F)c4c3=O)c2CO)cn(C)c1=O (single isomer, unassigned)")
7.60
>>> number("Cn1cc(-c2ccnc(-c3nc4ccc(C(C)(C)C)cc4n3C)c2CO)cc(NC(=O)C2CC2)c1=O")
7.59
